Reference source: paper PMC10221159

experiment: In vivo pharmacokinetic interaction study in rats (plasma)
Design: species or system rat
condition-description: male, Sprague-Dawley, rat, plasma, po, 2 mg/kg, oral amifampridine 2 mg/kg, control group

cpd-smiles	Tmax [h]
CC(=O)Nc1cnccc1N	1.31
Nc1ccncc1N	0.781

* * *

experiment: Tissue distribution of amifampridine and 3-N-acetylamifampridine in rats
Assay type: in vivo, rat
condition-description: Sprague Dawley, rat, heart; 60 min after oral amifampridine 2 mg/kg, acetaminophen 100 mg/kg; read-out: Tissue partition coefficient (Kp), Heart
property-label: Kp at 1 h

cpd-smiles	assay-value
CC(=O)Nc1cnccc1N	1.6
Nc1ccncc1N	0.7

* * *

Consider the following molecules and their measured Cmax readings.
experiment: In vivo pharmacokinetic interaction study in rats (plasma)
Parameters: species or system rat
condition-description: male, Sprague-Dawley, rat, plasma, po, 2 mg/kg, oral amifampridine 2 mg/kg, control group
property-label: Cmax (ng/mL)

cpd-smiles	property-label	assay-value
CC(=O)Nc1cnccc1N	Cmax	1210
Nc1ccncc1N	Cmax	70

* * *

experiment: In vivo pharmacokinetic interaction study in rats (plasma)
Parameters: species or system rat
condition-description: male, Sprague-Dawley, rat, plasma, po, 2 mg/kg, oral amifampridine 2 mg/kg, control group
Consider the following compounds and their measured AUC(0-t) readings.
property-label: AUC(0-t) (ng·h/mL)

compound	assay-value
Nc1ccncc1N [amifampridine]	141
CC(=O)Nc1cnccc1N [3-N-acetylamifampridine]	3410

* * *

measured-target: NAT2 (Homo sapiens, UniProt P11245)
Sequence (P11245 1-290): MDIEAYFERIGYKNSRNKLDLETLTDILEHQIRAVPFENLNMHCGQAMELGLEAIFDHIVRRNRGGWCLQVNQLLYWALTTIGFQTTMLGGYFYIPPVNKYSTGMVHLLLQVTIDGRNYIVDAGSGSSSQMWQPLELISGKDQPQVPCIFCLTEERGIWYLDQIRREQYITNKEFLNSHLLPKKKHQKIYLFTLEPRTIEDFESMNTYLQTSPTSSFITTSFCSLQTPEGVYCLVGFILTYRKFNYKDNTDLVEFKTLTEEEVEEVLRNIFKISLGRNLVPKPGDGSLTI
pIC50: −log10 of the molar value.

cpd-smiles	pIC50
COc1cc(C(C)=O)ccc1O	3.07
CC(=O)Nc1ccc(O)cc1	2.35
CN/C(=N/CCSCc1nc[nH]c1C)NC#N	2.61

* * *

experiment: In vivo pharmacokinetic interaction study in rats (plasma)
Set-up: species or system rat
condition-description: male, Sprague-Dawley, rat, plasma, po, 2 mg/kg, oral amifampridine 2 mg/kg, acetaminophen-treated group (100 mg/kg ip)

compound	readout-units	Tmax
Nc1ccncc1N [amifampridine]	h	1
CC(=O)Nc1cnccc1N [3-N-acetylamifampridine]	h	1.5

* * *

Consider the following compounds and their measured MRT readings.
experiment: In vivo pharmacokinetic interaction study in rats (plasma)
Set-up: species or system rat
condition-description: male, Sprague-Dawley, rat, plasma, po, 2 mg/kg, oral amifampridine 2 mg/kg, acetaminophen-treated group (100 mg/kg ip)
Method: Male Sprague Dawley (SD) rats (7–8 weeks old, 260–330 g) were purchased from Orient Bio, Inc. (Seongnam, Korea). […] The rats were anesthetized with a mixture of Rompun and Zoletil by intramuscular injection and received an intraperitoneal injection of vehicle (40:60 PEG400:normal saline; n = 8) or 100 mg/kg acetaminophen (n = 8). […] The supernatants were transferred to LC vials for quantification. […]
property-label: MRT

cpd-smiles	assay-value
CC(=O)Nc1cnccc1N	3.84 h
Nc1ccncc1N	2.08 h
